Entries and their LD50
assay: Acute toxicity, oral, in mice (Miller and Tainter); settings: mouse, in vivo, read-out: Acute toxicity LD 50

NCC1CN(c2ccc(OCc3ccc(F)cc3)cc2)C(=O)O1 (stereo not shown) [p-fluorobenzyl, amino] | > 2000 mg/kg
CNCC1CN(c2ccc(OCc3cccc(Cl)c3)cc2)C(=O)O1 (stereo not shown) [m-chlorobenzyl, N--methylamino] | > 2000 mg/kg
NCC1CN(c2ccc(OCc3cccc(Cl)c3)cc2)C(=O)O1 (stereo not shown) [m-chlorobenzyl, amino] | > 2000 mg/kg
NCC1CN(c2ccc(OCC3CCCC3)cc2)C(=O)O1 (stereo not shown) [cyclopentylmethyl, amino] | > 2000 mg/kg
CNCC1CN(c2ccc(OCC3CCCCC3)cc2)C(=O)O1 (stereo not shown) [cyclohexylmethyl, N--methylamino] | > 2000 mg/kg

Moving on to another compound below.
Q: Would you mind telling me what LD50 value was observed for CC(C)CCOc1ccc(N2CC(CN)OC2=O)cc1 (stereo not shown) [3-methylbutyl, amino] ?
Result: > 2000 mg/kg

----------
system: A type monoamine oxidase; test: Ex vivo monoamine oxidase inhibition in rat brain homogenate, serotonine substrate; parameters: unit not given here; details: rats, 5 mg/kg p.o., 24 hours after administration
metric: Monoamine oxidase inhibition effect, A Type monoamine oxidase, 24 hours
Output: the number by itself.

Solved cases below.
CNCC1CN(c2ccc(OCc3cccc(Cl)c3)cc2)C(=O)O1 (centres unmarked) [m-chlorobenzyl, N--methylamino] | 1
CNCC1CN(c2ccc(OCc3ccc(F)cc3)cc2)C(=O)O1 (centres unmarked) [p-fluorobenzyl, N--methylamino] | 0
CC(C)CCOc1ccc(N2CC(CN)OC2=O)cc1 (centres unmarked) [3-methylbutyl, amino] | 0
NCC1CN(c2ccc(OCc3ccccc3)cc2)C(=O)O1 (centres unmarked) [benzyl, amino] | 4

Q: Would you mind telling me what Monoamine oxidase inhibition effect, A Type monoamine oxidase, 24 hours value was observed for NCC1CN(c2ccc(OCc3ccc(F)cc3)cc2)C(=O)O1 (centres unmarked) [p-fluorobenzyl, amino] ?
Result: 3

----------
tested on: B type monoamine oxidase; experiment: Ex vivo monoamine oxidase inhibition in rat brain homogenate, phenylethylamine substrate; set-up: unit not given here; conditions: rats, 5 mg/kg p.o., 24 hours after administration
metric: Monoamine oxidase inhibition effect, B Type monoamine oxidase, 24 hours
Output: the number by itself.

Q: Would you mind telling me what Monoamine oxidase inhibition effect, B Type monoamine oxidase, 24 hours value was observed for CNCC1CN(c2ccc(OCc3cccc(Cl)c3)cc2)C(=O)O1 (stereo not shown) [m-chlorobenzyl, N--methylamino] ?
Result: 27

Q: Would you mind telling me what Monoamine oxidase inhibition effect, B Type monoamine oxidase, 24 hours value was observed for CC(C)CCOc1ccc(N2CC(CN)OC2=O)cc1 (stereo not shown) [3-methylbutyl, amino] ?
Result: 1

Q: Would you mind telling me what Monoamine oxidase inhibition effect, B Type monoamine oxidase, 24 hours value was observed for NCC1CN(c2ccc(OCc3ccc(F)cc3)cc2)C(=O)O1 (stereo not shown) [p-fluorobenzyl, amino] ?
Result: 61

Q: Would you mind telling me what Monoamine oxidase inhibition effect, B Type monoamine oxidase, 24 hours value was observed for NCC1CN(c2ccc(OCC3CCCC3)cc2)C(=O)O1 (stereo not shown) [cyclopentylmethyl, amino] ?
Result: 2

Q: Would you mind telling me what Monoamine oxidase inhibition effect, B Type monoamine oxidase, 24 hours value was observed for NCC1CN(c2ccc(OCC3CCCCC3)cc2)C(=O)O1 (stereo not shown) [cyclohexylmethyl, amino] ?
Result: 3

----------
tested on: B type monoamine oxidase; test: Ex vivo monoamine oxidase inhibition in rat brain homogenate, phenylethylamine substrate; parameters: unit not given here; conditions: rats, 5 mg/kg p.o., 8 hours after administration
Give Criterion met when the value for Monoamine oxidase inhibition effect, B Type monoamine oxidase, 8 hours is at least 60. Give Criterion not met when it is less.

Q: Does CNCC1CN(c2ccc(OCC3CCCCC3)cc2)C(=O)O1 (stereo not shown) have a reported Monoamine oxidase inhibition effect, B Type monoamine oxidase, 8 hours of at least 60?
Result: Criterion not met

Q: Does NCC1CN(c2ccc(OCC3CCCC3)cc2)C(=O)O1 (stereo not shown) have a reported Monoamine oxidase inhibition effect, B Type monoamine oxidase, 8 hours of at least 60?
Result: Criterion not met

Q: Does CNCC1CN(c2ccc(OCc3cccc(Cl)c3)cc2)C(=O)O1 (stereo not shown) have a reported Monoamine oxidase inhibition effect, B Type monoamine oxidase, 8 hours of at least 60?
Result: Criterion met

Q: Does NCC1CN(c2ccc(OCc3ccc(F)cc3)cc2)C(=O)O1 (stereo not shown) have a reported Monoamine oxidase inhibition effect, B Type monoamine oxidase, 8 hours of at least 60?
Result: Criterion met

Q: Does CNCC1CN(c2ccc(OCc3ccccc3)cc2)C(=O)O1 (stereo not shown) have a reported Monoamine oxidase inhibition effect, B Type monoamine oxidase, 8 hours of at least 60?
Result: Criterion not met

Q: Does CNCC1CN(c2ccc(OCc3ccc(F)cc3)cc2)C(=O)O1 (stereo not shown) have a reported Monoamine oxidase inhibition effect, B Type monoamine oxidase, 8 hours of at least 60?
Result: Criterion met

Q: Does CC(C)CCOc1ccc(N2CC(CN)OC2=O)cc1 (stereo not shown) have a reported Monoamine oxidase inhibition effect, B Type monoamine oxidase, 8 hours of at least 60?
Result: Criterion not met

Q: Does NCC1CN(c2ccc(OCc3cccc(Cl)c3)cc2)C(=O)O1 (stereo not shown) have a reported Monoamine oxidase inhibition effect, B Type monoamine oxidase, 8 hours of at least 60?
Result: Criterion met

Q: Does NCC1CN(c2ccc(OCc3ccccc3)cc2)C(=O)O1 (stereo not shown) have a reported Monoamine oxidase inhibition effect, B Type monoamine oxidase, 8 hours of at least 60?
Result: Criterion met

----------
tested on: A type monoamine oxidase; test: Ex vivo monoamine oxidase inhibition in rat brain homogenate, serotonine substrate; design: unit not given here; conditions: rats, 5 mg/kg p.o., 8 hours after administration
Entries and their Monoamine oxidase inhibition effect, A Type monoamine oxidase, 8 hours

Solved cases below.
CC(C)CCOc1ccc(N2CC(CN)OC2=O)cc1 (stereo not shown) [3-methylbutyl, amino] | 2
NCC1CN(c2ccc(OCc3ccc(F)cc3)cc2)C(=O)O1 (stereo not shown) [p-fluorobenzyl, amino] | 20
NCC1CN(c2ccc(OCc3ccccc3)cc2)C(=O)O1 (stereo not shown) [benzyl, amino] | 4
CNCC1CN(c2ccc(OCc3cccc(Cl)c3)cc2)C(=O)O1 (stereo not shown) [m-chlorobenzyl, N--methylamino] | 12
NCC1CN(c2ccc(OCC3CCCC3)cc2)C(=O)O1 (stereo not shown) [cyclopentylmethyl, amino] | 9
CNCC1CN(c2ccc(OCc3ccccc3)cc2)C(=O)O1 (stereo not shown) [benzyl, N--methylamino] | 11
NCC1CN(c2ccc(OCc3cccc(Cl)c3)cc2)C(=O)O1 (stereo not shown) [m-chlorobenzyl, amino] | 18
CNCC1CN(c2ccc(OCC3CCCCC3)cc2)C(=O)O1 (stereo not shown) [cyclohexylmethyl, N--methylamino] | 17
NCC1CN(c2ccc(OCC3CCCCC3)cc2)C(=O)O1 (stereo not shown) [cyclohexylmethyl, amino] | 13

Moving on to another molecule below.
Q: Would you mind telling me what Monoamine oxidase inhibition effect, A Type monoamine oxidase, 8 hours value was observed for CNCC1CN(c2ccc(OCc3ccc(F)cc3)cc2)C(=O)O1 (stereo not shown) [p-fluorobenzyl, N--methylamino] ?
Result: 23

----------
system: A type monoamine oxidase; test: Ex vivo monoamine oxidase inhibition in rat brain homogenate, serotonine substrate; design: unit not given here; settings: rats, 5 mg/kg p.o., maximum effect observed between 30 minutes and 8 hours
Give yes (1) when the value for Monoamine oxidase inhibition effect, A Type monoamine oxidase, max. is at least 30. Give no (0) when it is less.

Q: Does NCC1CN(c2ccc(OCc3ccc(F)cc3)cc2)C(=O)O1 (stereo not shown) have a reported Monoamine oxidase inhibition effect, A Type monoamine oxidase, max. of at least 30?
Result: yes (1)

Q: Does CNCC1CN(c2ccc(OCc3cccc(Cl)c3)cc2)C(=O)O1 (stereo not shown) have a reported Monoamine oxidase inhibition effect, A Type monoamine oxidase, max. of at least 30?
Result: no (0)

Q: Does CNCC1CN(c2ccc(OCC3CCCCC3)cc2)C(=O)O1 (stereo not shown) have a reported Monoamine oxidase inhibition effect, A Type monoamine oxidase, max. of at least 30?
Result: no (0)

Q: Does CNCC1CN(c2ccc(OCc3ccccc3)cc2)C(=O)O1 (stereo not shown) have a reported Monoamine oxidase inhibition effect, A Type monoamine oxidase, max. of at least 30?
Result: no (0)

Q: Does NCC1CN(c2ccc(OCc3ccccc3)cc2)C(=O)O1 (stereo not shown) have a reported Monoamine oxidase inhibition effect, A Type monoamine oxidase, max. of at least 30?
Result: no (0)

Q: Does CNCC1CN(c2ccc(OCc3ccc(F)cc3)cc2)C(=O)O1 (stereo not shown) have a reported Monoamine oxidase inhibition effect, A Type monoamine oxidase, max. of at least 30?
Result: yes (1)

Q: Does NCC1CN(c2ccc(OCC3CCCCC3)cc2)C(=O)O1 (stereo not shown) have a reported Monoamine oxidase inhibition effect, A Type monoamine oxidase, max. of at least 30?
Result: no (0)

Q: Does CC(C)CCOc1ccc(N2CC(CN)OC2=O)cc1 (stereo not shown) have a reported Monoamine oxidase inhibition effect, A Type monoamine oxidase, max. of at least 30?
Result: no (0)
